Entries annotated with measured EC50
Tested on: H4
test details: Luminescence Cell-Based Dose Response HTS to Identify Activators of 5'UTR Stem-Loop Driven Prion Protein mRNA Translation in H4 Neuroglioblastoma Cells. [Related pubchem assays: 1829 (Project Summary), 1814 (Primary HTS)]
Assay type: functional
conditions used: Homo sapiens
The source made the active and inactive calls.
measured metric: EC50

INSERT INTO assay_data (compound, measured_metric, experimental_result) VALUES
  ('COC(=O)c1ccccc1NC1=C/C(=N\S(=O)(=O)c2cccs2)c2ccccc2C1=O', 'EC50', '1.89 µM (active)'),
  ('COc1ccc2cc(C(=O)NCCc3ccccc3)[nH]c2c1', 'EC50', '99.5 µM (active)'),
  ('CCOC(=O)c1cc2c(s1)-c1c(C)cccc1OC2', 'EC50', '30.9 µM (active)'),
  ('O=C(C1CC(c2ccc(F)cc2)=NO1)N1CCCCC1 (stereo not given)', 'EC50', '33.4 µM (active)'),
  ('COc1ccccc1C(=O)N/N=C(\C)c1ccc(NC(=O)Cc2ccccc2)cc1', 'EC50', '> 120 µM (not active)');

###

experimental system: FAD-linked sulfhydryl oxidase ALR (Homo sapiens, UniProt P55789)
Sequence (P55789 whole entry): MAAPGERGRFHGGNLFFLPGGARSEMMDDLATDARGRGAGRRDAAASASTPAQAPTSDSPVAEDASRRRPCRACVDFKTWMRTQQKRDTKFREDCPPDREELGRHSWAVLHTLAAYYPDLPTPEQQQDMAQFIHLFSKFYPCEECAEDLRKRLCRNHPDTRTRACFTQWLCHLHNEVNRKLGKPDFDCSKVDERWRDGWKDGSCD
test details: ALR-catalysed DTT oxidation blockers – biochemical, H2O2 detection, luminescence, cherry-pick, dose response (AID 493248)
Activity calls are given as the source filed them.
measured metric: AC50

INSERT INTO results (compound, measured_metric, experimental_result) VALUES
  ('Nc1ccc2nc(NC(=O)C3CCCCC3)sc2c1', 'AC50', '957 nM (active)'),
  ('Cc1[nH]n(C(N)=S)c(=O)c1/N=N/c1ccc(Cl)cc1Cl', 'AC50', '674 nM (active)'),
  ('CC(NC(=O)C(=O)N1CCCCC1)C(c1cccs1)N1CCN(c2ccc(F)cc2)CC1 (stereo unspecified)', 'AC50', '1440 nM (active)'),
  ('COc1ccc(/C=N/NC(=O)c2[nH]c3ccc(C)cc3c2-c2ccccc2)c(C(=O)O)c1OC', 'AC50', '3710 nM (active)'),
  ('CCN(CC)c1ccc(NC(=O)C2=CC=CN3CCS(=O)(=O)N=C23)cc1', 'AC50', '295 nM (active)'),
  ('Sc1nccc(-c2cccs2)n1', 'AC50', '664 nM (active)'),
  ('CCN(Cc1ccncc1)C(=O)c1cc(Br)cc(Br)c1O', 'AC50', '1250 nM (active)'),
  ('Cc1[nH]c2ccc(C(=O)N3CCCCC3)cc2c1C', 'AC50', '2770 nM (active)'),
  ('CN1CCN(/N=C/c2ccc(N(C)c3ccccc3)cc2)CC1', 'AC50', '1900 nM (active)'),
  ('COc1ccc2nc(S)[nH]c2c1', 'AC50', '581 nM (active)'),
  ('Cc1cccc(C(=O)Nc2nnc(S(=O)(=O)N(C)Cc3ccco3)s2)c1', 'AC50', '9450 nM (active)');

###

experimental system: Heat shock protein HSP 90-alpha (Homo sapiens)
Type: functional, organism-based
Activity calls are given as the source filed them.
measured metric: AC50

INSERT INTO results (compound, experimental_result) VALUES
  ('Cc1ccc(N2C(=O)C3C4C=CC(CN=C(S)N5CCN(c6cccc(C)c6)C(C)C5)(O4)C3C2=O)cc1 (centres undefined)', '8.5 µM (active)'),
  ('O=C(/C=C/c1ccccc1[N+](=O)[O-])c1ccccc1Br', '4.37 µM (active)'),
  ('CCCCCCCCCCC[N+](C)(C)CC/C=C1/c2ccccc2Sc2ccc(Cl)cc21', '6.77 µM (active)'),
  ('CCOC(=O)C1CCCN(C2CC(=O)N(c3cccc(C(F)(F)F)c3)C2=O)C1 (centres undefined)', '7.53 µM (active)'),
  ('COc1cccc(/C=C2/CCC(CN(C)C)C2=O)c1 (centres undefined)', '4.55 µM (active)'),
  ('CN1CCN(C(=O)c2cc(COc3c(F)cccc3F)on2)CC1c1ccccc1 (centres undefined)', '0.566 µM (active)'),
  ('CC(C)CCOc1cccc(OCC(=O)Nc2ccncc2)c1', '2.62 µM (active)'),
  ('Clc1ccccc1CN(Cc1ccco1)Cc1nnnn1C1CCCC1', '5.48 µM (active)'),
  ('CCCC(=O)NC(c1ccc(OC)cc1)c1ccc2cccnc2c1O (centres undefined)', '4.08 µM (active)');
